- target_desc: α4β2(V253F) nAChR (Rattus norvegicus, UniProt P09483+P12390, V277F)
- Construct: expressed in transfected cells; host or cells: Xenopus laevis oocytes injected with cRNA
- Sequence (P09483 31-630, stated change not applied): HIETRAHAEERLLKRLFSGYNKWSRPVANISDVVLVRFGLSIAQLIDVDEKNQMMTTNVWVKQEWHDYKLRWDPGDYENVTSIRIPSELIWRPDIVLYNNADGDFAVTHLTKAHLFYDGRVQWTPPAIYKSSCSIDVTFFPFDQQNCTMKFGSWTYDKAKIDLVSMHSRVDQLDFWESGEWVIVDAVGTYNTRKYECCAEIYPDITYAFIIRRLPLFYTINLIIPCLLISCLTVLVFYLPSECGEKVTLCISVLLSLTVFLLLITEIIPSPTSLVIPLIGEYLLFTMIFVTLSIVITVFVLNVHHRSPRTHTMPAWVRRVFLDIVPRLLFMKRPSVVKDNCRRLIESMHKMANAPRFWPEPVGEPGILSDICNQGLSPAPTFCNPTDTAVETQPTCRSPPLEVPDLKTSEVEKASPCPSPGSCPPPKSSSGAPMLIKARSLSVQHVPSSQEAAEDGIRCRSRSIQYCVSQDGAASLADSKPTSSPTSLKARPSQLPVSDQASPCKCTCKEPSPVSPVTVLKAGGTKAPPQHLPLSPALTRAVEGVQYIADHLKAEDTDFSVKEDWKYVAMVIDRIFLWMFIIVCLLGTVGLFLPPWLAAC
- Sequence (P12390 25-500 V277F): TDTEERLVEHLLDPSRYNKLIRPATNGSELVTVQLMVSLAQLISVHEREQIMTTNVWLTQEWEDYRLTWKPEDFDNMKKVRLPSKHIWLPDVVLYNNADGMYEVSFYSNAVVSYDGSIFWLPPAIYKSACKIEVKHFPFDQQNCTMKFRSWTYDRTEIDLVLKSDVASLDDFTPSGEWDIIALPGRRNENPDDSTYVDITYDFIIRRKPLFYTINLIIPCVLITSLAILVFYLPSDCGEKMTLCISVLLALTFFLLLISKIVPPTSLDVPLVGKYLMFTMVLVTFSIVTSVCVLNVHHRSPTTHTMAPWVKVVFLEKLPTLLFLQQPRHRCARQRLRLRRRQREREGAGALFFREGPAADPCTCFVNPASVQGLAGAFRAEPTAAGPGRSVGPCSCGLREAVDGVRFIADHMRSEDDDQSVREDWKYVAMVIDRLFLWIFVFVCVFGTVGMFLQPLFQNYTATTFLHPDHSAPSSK
- measurement_notes: Two-electrode voltage clamp of ACh currents, α4β2(V253F) nAChRs expressed in Xenopus oocytes
- Assay type: cell-based
- condition_summary: α4β2(V253F), VH −80 mV, peak current, ACh 10 μM; read-out: IC50 (95% CI), Peak
We begin with a simple list: items and their reported IC50.
measured_quantity: IC50 (µM)

* CCCC(=O)N[C@@H](Cc1ccc(O)cc1)C(=O)NCCCCCCCCCCCCN [PhTX-12] | 4.05
* CCCC(=O)N[C@@H](Cc1ccc(O)cc1)C(=O)NCCCNCCCCNCCCN [PhTX-343] | 0.75

----------
- target_desc: α3β2 nAChR (Rattus norvegicus, UniProt P04757+P12390)
- Sequence (P04757 26-499): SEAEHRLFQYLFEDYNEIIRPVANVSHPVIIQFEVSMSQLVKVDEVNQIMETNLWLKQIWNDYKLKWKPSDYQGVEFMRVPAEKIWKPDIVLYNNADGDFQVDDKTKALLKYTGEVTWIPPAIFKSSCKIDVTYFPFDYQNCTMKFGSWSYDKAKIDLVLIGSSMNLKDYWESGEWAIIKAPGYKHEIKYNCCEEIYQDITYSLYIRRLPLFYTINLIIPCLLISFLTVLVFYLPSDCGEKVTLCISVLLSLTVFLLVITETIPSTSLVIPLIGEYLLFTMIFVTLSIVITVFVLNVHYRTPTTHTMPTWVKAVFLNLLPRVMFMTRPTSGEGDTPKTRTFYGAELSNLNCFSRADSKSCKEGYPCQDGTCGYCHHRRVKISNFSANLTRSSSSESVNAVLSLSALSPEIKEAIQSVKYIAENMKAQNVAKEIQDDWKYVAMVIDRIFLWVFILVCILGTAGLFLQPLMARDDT
- Sequence (P12390 25-500): as the sequence (P12390 25-500 V277F) above, with F253V counted along it
- measurement_notes: Two-electrode voltage clamp of ACh currents, α3β2 nAChRs expressed in Xenopus oocytes
- condition_summary: IC50 (95% CI), Peak, α3β2, VH −80 mV, peak current, ACh 30 μM
measured_quantity: IC50 (µM)

* CCCC(=O)N[C@@H](Cc1ccc(O)cc1)C(=O)NCCCNCCCCNCCCN | 9.26

----------
- target_desc: α4β4 nAChR (Rattus norvegicus, UniProt P09483+P12392)
- Construct: expressed in transfected cells; host or cells: Xenopus laevis oocytes injected with cRNA
- measurement_notes: cell-based
- Format: cell-based
- condition_summary: IC50 (95% CI), Late, α4β4, VH −100 mV, late current (1 min), ACh 10 μM
pIC50: −log10 of the molar value.
measured_quantity: pIC50

- CCCC(=O)N[C@@H](Cc1ccc(O)cc1)C(=O)NCCCNCCCCNCCCN [PhTX-343]: 7.57
- CCCC(=O)N[C@@H](Cc1ccc(O)cc1)C(=O)NCCCCCCCCCCCCN [PhTX-12]: 6.72

----------
- target_desc: α3β4 nAChR (Rattus norvegicus, UniProt P04757+P12392)
- Construct: expressed in transfected cells; host or cells: Xenopus laevis oocytes injected with cRNA
- measurement_notes: cell-based
- condition_summary: IC50, α3β4, late current, −80 mV
pIC50: −log10 of the molar value.
measured_quantity: pIC50

• CCCC(=O)N[C@@H](Cc1ccc(O)cc1)C(=O)NCCCCCCCCCCCCN = 7.00

----------
- target_desc: α4β4 nAChR (Rattus norvegicus, UniProt P09483+P12392)
- Construct: expressed in transfected cells; host or cells: Xenopus laevis oocytes injected with cRNA
- measurement_notes: cell-based
- Format: cell-based
- condition_summary: IC50 (95% CI), Peak, α4β4, VH −80 mV, peak current, ACh 10 μM
Listed here: items and their measured IC50.
measured_quantity: IC50 (µM)

* CCCC(=O)N[C@@H](Cc1ccc(O)cc1)C(=O)NCCCNCCCCNCCCN | 0.35
* CCCC(=O)N[C@@H](Cc1ccc(O)cc1)C(=O)NCCCCCCCCCCCCN | 1.65

----------
- target_desc: α4β2 nAChR (Rattus norvegicus, UniProt P09483+P12390)
- Construct: expressed in transfected cells; host or cells: Xenopus laevis oocytes injected with cRNA
- measurement_notes: cell-based
- Format: cell-based
- condition_summary: IC50 (95% CI), Peak, α4β2, VH −100 mV, peak current, ACh 10 μM
measured_quantity: IC50 (nM)

* CCCC(=O)N[C@@H](Cc1ccc(O)cc1)C(=O)NCCCCCCCCCCCCN | 1640
* CCCC(=O)N[C@@H](Cc1ccc(O)cc1)C(=O)NCCCNCCCCNCCCN | 140

----------
- target_desc: α4β4 nAChR (Rattus norvegicus, UniProt P09483+P12392)
- Construct: expressed in transfected cells; host or cells: Xenopus laevis oocytes injected with cRNA
- measurement_notes: cell-based
- Type: cell-based
- condition_summary: IC50 (95% CI), Late, α4β4, VH −60 mV, late current (1 min), ACh 10 μM
pIC50: −log10 of the molar value.
Entries annotated with measured pIC50
measured_quantity: pIC50

• CCCC(=O)N[C@@H](Cc1ccc(O)cc1)C(=O)NCCCNCCCCNCCCN = 6.77
• CCCC(=O)N[C@@H](Cc1ccc(O)cc1)C(=O)NCCCCCCCCCCCCN = 6.60

----------
In this section, each of the compounds is paired with its reported IC50.
- target_desc: α1β1γδ nAChR (Mus musculus, UniProt P02716+P04756+P04760+P09690)
- Construct: expressed in transfected cells; host or cells: Xenopus laevis oocytes injected with cRNA
- Sequence (P04756 21-457): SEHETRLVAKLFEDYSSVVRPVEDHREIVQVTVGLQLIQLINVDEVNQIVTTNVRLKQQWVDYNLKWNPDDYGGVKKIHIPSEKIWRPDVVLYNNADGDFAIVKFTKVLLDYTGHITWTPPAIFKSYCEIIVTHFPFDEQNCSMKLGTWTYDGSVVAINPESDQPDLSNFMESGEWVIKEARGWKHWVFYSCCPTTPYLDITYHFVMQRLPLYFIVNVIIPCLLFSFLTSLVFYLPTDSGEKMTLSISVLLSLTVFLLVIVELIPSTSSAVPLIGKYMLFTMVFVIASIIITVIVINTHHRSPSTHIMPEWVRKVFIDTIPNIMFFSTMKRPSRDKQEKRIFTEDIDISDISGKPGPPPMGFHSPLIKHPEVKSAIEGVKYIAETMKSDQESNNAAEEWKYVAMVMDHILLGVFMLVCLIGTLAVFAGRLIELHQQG
- Sequence (P09690 24-501): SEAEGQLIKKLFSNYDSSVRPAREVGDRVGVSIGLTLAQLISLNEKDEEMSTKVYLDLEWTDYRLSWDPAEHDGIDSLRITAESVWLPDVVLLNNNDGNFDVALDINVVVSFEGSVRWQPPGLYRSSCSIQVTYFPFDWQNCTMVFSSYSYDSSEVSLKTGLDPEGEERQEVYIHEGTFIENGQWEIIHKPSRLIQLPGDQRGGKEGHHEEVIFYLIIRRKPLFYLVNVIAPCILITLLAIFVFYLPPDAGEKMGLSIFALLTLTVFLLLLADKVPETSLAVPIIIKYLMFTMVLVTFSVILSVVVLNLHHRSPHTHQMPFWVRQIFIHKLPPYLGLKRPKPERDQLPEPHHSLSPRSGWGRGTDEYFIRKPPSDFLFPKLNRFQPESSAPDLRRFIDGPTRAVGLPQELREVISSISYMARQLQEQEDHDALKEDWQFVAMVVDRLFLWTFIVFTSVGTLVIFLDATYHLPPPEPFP
- Sequence (P04760 23-519): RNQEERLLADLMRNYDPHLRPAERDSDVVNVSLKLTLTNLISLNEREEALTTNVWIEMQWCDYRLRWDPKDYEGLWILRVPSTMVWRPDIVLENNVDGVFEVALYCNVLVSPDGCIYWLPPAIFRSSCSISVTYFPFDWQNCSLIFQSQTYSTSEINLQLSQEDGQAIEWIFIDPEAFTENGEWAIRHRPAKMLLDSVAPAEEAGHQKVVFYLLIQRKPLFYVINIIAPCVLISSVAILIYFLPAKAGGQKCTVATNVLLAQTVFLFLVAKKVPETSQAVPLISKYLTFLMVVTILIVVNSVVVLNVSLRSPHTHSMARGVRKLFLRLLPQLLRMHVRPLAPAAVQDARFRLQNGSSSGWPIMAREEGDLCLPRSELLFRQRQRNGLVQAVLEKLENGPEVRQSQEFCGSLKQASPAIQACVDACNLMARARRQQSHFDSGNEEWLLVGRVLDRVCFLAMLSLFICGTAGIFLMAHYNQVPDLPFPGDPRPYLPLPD
- Sequence (P02716 25-520): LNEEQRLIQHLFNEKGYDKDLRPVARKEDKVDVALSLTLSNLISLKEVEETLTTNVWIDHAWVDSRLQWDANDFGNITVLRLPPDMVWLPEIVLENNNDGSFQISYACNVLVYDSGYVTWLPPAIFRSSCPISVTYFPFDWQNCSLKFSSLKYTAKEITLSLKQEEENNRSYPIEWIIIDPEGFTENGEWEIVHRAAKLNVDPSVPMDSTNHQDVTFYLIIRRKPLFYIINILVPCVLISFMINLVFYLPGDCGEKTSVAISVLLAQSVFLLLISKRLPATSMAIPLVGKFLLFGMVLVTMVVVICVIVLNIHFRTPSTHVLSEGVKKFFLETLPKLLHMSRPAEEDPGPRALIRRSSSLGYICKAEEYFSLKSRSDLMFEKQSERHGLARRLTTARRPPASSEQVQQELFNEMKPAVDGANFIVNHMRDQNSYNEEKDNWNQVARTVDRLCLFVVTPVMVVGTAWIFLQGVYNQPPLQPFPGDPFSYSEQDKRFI
- measurement_notes: cell-based
- Format: cell-based
- condition_summary: IC50 (95% CI), Late, α1β1γδ, VH −100 mV, late current (1 min), ACh 10 μM
measured_quantity: IC50

- CCCC(=O)N[C@@H](Cc1ccc(O)cc1)C(=O)NCCCNCCCCNCCCN: 2440 nM
- CCCC(=O)N[C@@H](Cc1ccc(O)cc1)C(=O)NCCCCCCCCCCCCN: 71 nM

----------
- target_desc: α3β4 nAChR (Rattus norvegicus, UniProt P04757+P12392)
- Construct: expressed in transfected cells; host or cells: Xenopus laevis oocytes injected with cRNA
- measurement_notes: cell-based
- condition_summary: IC50 (95% CI), Late, α3β4, VH −100 mV, late current (1 min), ACh 100 μM
Some compounds, each annotated with its measured IC50.
measured_quantity: IC50 (nM)

* CCCC(=O)N[C@@H](Cc1ccc(O)cc1)C(=O)NCCCCCCCCCCCCN [PhTX-12] | 27
* CCCC(=O)N[C@@H](Cc1ccc(O)cc1)C(=O)NCCCNCCCCNCCCN [PhTX-343] | 7.7

----------
- target_desc: α7 nAChR (Homo sapiens, UniProt P36544)
- Construct: expressed in transfected cells; host or cells: Xenopus laevis oocytes injected with cRNA
- Sequence (P36544 23-502): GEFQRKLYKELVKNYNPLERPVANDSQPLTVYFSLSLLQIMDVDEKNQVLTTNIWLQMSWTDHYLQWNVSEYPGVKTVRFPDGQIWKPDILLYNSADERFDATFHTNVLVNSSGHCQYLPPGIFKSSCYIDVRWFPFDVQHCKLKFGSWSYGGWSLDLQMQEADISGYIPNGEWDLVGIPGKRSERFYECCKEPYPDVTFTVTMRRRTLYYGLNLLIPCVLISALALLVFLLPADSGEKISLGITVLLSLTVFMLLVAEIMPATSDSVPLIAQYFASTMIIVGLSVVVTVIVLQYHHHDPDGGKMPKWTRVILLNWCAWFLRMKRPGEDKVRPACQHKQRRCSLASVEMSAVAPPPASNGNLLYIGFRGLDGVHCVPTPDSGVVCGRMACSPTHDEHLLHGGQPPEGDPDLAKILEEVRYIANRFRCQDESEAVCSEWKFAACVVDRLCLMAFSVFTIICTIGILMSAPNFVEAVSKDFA
- measurement_notes: Two-electrode voltage clamp of ACh currents, α7 nAChRs (with RIC-3) expressed in Xenopus oocytes
- Format: cell-based
- condition_summary: IC50 (95% CI), Late, α7, VH −80 mV, based on the area under the current trace (no stable late current), ACh 100 μM
measured_quantity: IC50 (µM)

* CCCC(=O)N[C@@H](Cc1ccc(O)cc1)C(=O)NCCCNCCCCNCCCN | 5.06

----------
- target_desc: α3β4(F255V) nAChR (Rattus norvegicus, UniProt P04757+P12392, F275V)
- Construct: expressed in transfected cells; host or cells: Xenopus laevis oocytes injected with cRNA
- Sequence (P04757 26-499): as the sequence (P04757 26-499) above
- Sequence (P12392 21-495 F275V): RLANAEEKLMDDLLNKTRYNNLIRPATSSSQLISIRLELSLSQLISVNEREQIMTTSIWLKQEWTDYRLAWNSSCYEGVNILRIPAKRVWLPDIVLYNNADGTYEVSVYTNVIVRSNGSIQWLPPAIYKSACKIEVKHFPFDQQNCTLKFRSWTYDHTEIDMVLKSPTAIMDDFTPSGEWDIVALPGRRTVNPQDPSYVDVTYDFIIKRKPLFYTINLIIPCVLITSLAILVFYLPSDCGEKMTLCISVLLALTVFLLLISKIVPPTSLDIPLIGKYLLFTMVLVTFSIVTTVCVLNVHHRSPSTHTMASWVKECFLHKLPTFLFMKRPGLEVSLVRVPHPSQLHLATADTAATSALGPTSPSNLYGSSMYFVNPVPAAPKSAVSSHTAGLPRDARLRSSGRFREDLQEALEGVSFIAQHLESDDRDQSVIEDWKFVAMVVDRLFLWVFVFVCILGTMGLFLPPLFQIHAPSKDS
- measurement_notes: Two-electrode voltage clamp of ACh currents, α3β4(F255V) nAChRs expressed in Xenopus oocytes
- Format: cell-based
- condition_summary: α3β4(F255V), VH −80 mV, peak current, ACh 100 μM; read-out: IC50 (95% CI), Peak
pIC50: −log10 of the molar value.
measured_quantity: pIC50

- CCCC(=O)N[C@@H](Cc1ccc(O)cc1)C(=O)NCCCNCCCCNCCCN: 7.42
- CCCC(=O)N[C@@H](Cc1ccc(O)cc1)C(=O)NCCCCCCCCCCCCN: 5.56

----------
- target_desc: α3β2 nAChR (Rattus norvegicus, UniProt P04757+P12390)
- measurement_notes: Two-electrode voltage clamp of ACh currents, α3β2 nAChRs expressed in Xenopus oocytes
- condition_summary: IC50 (95% CI), Peak, α3β2, VH −100 mV, peak current, ACh 30 μM
measured_quantity: IC50 (µM)

* CCCC(=O)N[C@@H](Cc1ccc(O)cc1)C(=O)NCCCCCCCCCCCCN [PhTX-12] | 74.4
* CCCC(=O)N[C@@H](Cc1ccc(O)cc1)C(=O)NCCCNCCCCNCCCN [PhTX-343] | 3.59

----------
- target_desc: α7 nAChR (Homo sapiens, UniProt P36544)
- Construct: expressed in transfected cells; host or cells: Xenopus laevis oocytes injected with cRNA
- measurement_notes: Two-electrode voltage clamp of ACh currents, α7 nAChRs (with RIC-3) expressed in Xenopus oocytes
- Format: cell-based
- condition_summary: IC50 (95% CI), Peak, α7, VH −100 mV, peak current, ACh 100 μM
pIC50: −log10 of the molar value.
Entries and their pIC50 values follow.
measured_quantity: pIC50

* CCCC(=O)N[C@@H](Cc1ccc(O)cc1)C(=O)NCCCNCCCCNCCCN [PhTX-343] | 5.06
* CCCC(=O)N[C@@H](Cc1ccc(O)cc1)C(=O)NCCCCCCCCCCCCN [PhTX-12] | 4.92

----------
# pIC50 values compiled below
- target_desc: α3β2 nAChR (Rattus norvegicus, UniProt P04757+P12390)
- measurement_notes: Two-electrode voltage clamp of ACh currents, α3β2 nAChRs expressed in Xenopus oocytes
- condition_summary: IC50 (95% CI), Late, α3β2, VH −100 mV, late current (1 min), ACh 30 μM
pIC50: −log10 of the molar value.
measured_quantity: pIC50

* CCCC(=O)N[C@@H](Cc1ccc(O)cc1)C(=O)NCCCCCCCCCCCCN [PhTX-12] | 5.86
* CCCC(=O)N[C@@H](Cc1ccc(O)cc1)C(=O)NCCCNCCCCNCCCN [PhTX-343] | 6.43
